Listed here are compounds together with their documented Papp A→B at 100 µM.
experiment-description: Apparent permeability from apical to basolateral side of human Caco-2 cells at 100 uM

given-smiles: COc1ccc2oc(C(=O)NC3(C(=O)N[C@@H](CCCN4CCN(CC5CCOCC5)CC4)Cc4ccccc4)CCCC3)cc2c1
Papp A→B at 100 µM: 8.6 ×10⁻⁶ cm/s

given-smiles: Cc1ccc(-c2ccc(C(=O)NC3(C(=O)N[C@@H](CCCN4CCN(CC5CCOCC5)CC4)Cc4ccccc4)CCCC3)cc2)cc1
Papp A→B at 100 µM: 7.1 ×10⁻⁶ cm/s

given-smiles: O=C(NC1(C(=O)N[C@@H](CCCN2CCN(CC3CCOCC3)CC2)Cc2ccccc2)CCCC1)c1cc2cc(Cl)ccc2o1
Papp A→B at 100 µM: 13.7 ×10⁻⁶ cm/s

given-smiles: O=C(NC1(C(=O)N[C@@H](CCCN2CCN(CC3CCOCC3)CC2)Cc2ccccc2)CCCC1)c1ccc(-c2ccccc2)cc1
Papp A→B at 100 µM: 13.6 ×10⁻⁶ cm/s

given-smiles: O=C(NC1(C(=O)N[C@@H](CCCN2CCN(CC3CCOCC3)CC2)Cc2ccccc2)CCCC1)c1cc2ccccc2o1
Papp A→B at 100 µM: 20.2 ×10⁻⁶ cm/s

given-smiles: O=C(NC1(C(=O)N[C@@H](CCCN2CCN(CC3CCOCC3)CC2)Cc2ccccc2)CCCC1)c1ccc2ccccc2c1
Papp A→B at 100 µM: 14.6 ×10⁻⁶ cm/s

// switching to the query compound
IN: Given "Cc1ccc2cc(C(=O)NC3(C(=O)N[C@@H](CCCN4CCN(CC5CCOCC5)CC4)Cc4ccccc4)CCCC3)sc2c1" , state its recorded Papp A→B at 100 µM.
OUT: 11.2 ×10⁻⁶ cm/s
